Data provenance is patent US10822345B2.

target: Kv1.3 (Homo sapiens (Human)); test: Patch-clamp assay for inhibitory activity on Kv1.3 (whole cell recording); settings: n≥2 per concentration, three or more concentrations
Sequence (P22001 whole entry): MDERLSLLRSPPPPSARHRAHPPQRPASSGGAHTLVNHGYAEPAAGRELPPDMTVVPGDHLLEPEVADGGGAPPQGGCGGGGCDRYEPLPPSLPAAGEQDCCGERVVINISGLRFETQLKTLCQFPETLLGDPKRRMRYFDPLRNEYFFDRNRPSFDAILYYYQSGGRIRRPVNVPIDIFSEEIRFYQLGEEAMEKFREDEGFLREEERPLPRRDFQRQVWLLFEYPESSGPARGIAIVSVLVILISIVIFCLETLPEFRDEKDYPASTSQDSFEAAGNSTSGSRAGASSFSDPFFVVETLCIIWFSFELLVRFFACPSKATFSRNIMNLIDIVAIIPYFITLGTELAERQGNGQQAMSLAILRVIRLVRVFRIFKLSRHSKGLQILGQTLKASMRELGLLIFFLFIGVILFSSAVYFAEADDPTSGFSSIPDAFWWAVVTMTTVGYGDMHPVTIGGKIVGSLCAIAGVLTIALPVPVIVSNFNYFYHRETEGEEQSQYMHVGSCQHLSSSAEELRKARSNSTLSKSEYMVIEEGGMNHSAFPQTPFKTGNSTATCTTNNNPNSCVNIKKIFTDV

molecule_smiles	IC50
Cc1c(-c2cccnc2)c2cc3c(C)coc3c(C)c2oc1=O	≤ 500 nM
Cc1c(-c2ccccc2)c2cc3c(C)c(C#N)oc3c(C)c2oc1=O	1500 to 3000 nM
Cc1coc2c(C)c3[nH]c(=O)c(Br)c(-c4ccccc4F)c3cc12	501 to 1500 nM
Cc1c(-c2cccnc2)c2cc3c(C)coc3c(C)c2[nH]c1=O	≤ 500 nM
Cc1c(-c2ccccc2Cl)c2cc3c(C)coc3c(C)c2[nH]c1=O	≤ 500 nM
Cc1coc2c(C)c3c(cc12)c(-c1ccccc1)c(Br)c(=O)n3C	≤ 500 nM
Cc1coc2c(C)c3oc(=O)cc(-c4ccccc4F)c3cc12	≤ 500 nM
Cc1c(-c2ccccc2F)c2cc3c(C)coc3c(C)c2oc1=O	≤ 500 nM
Cc1c(-c2ccccc2)c2cc3c(C)coc3nc2oc1=O	≤ 500 nM
